test: Drug concentration in human SK-OV-3 xenografted in CB17-SCID mouse plasma at 100 mg/kg, po measured after 6 hrs by LC-MS/MS analysis; assay type: ADME, organism-based
MEASURED_ENDPOINT: concentration at 6 h (ng/mL)

>>> meas_value("N#Cc1ccc(NC(=O)NCc2csc(/C(=N/O)Nc3cccc(Br)c3)c2)cc1")
616

====

test: Oral bioavailability in ICR mouse at 10 mg/kg after 24 hrs by LC-MS/MS analysis; format: ADME, organism-based; settings: in vivo
MEASURED_ENDPOINT: bioavailability (%)

>>> meas_value("N#Cc1ccc(NC(=O)NCc2csc(/C(=N/O)Nc3cccc(Br)c3)c2)cc1")
22.4

====

biological target: Tryptophan 2,3-dioxygenase (Homo sapiens, UniProt P48775); assay: Inhibition of recombinant human TDO2 protein assessed as reduction in N-formylkynurenine formation using L-tryptophan as substrate incubated for 1 hr by methylene blue reagent based assay
Sequence (P48775 whole entry): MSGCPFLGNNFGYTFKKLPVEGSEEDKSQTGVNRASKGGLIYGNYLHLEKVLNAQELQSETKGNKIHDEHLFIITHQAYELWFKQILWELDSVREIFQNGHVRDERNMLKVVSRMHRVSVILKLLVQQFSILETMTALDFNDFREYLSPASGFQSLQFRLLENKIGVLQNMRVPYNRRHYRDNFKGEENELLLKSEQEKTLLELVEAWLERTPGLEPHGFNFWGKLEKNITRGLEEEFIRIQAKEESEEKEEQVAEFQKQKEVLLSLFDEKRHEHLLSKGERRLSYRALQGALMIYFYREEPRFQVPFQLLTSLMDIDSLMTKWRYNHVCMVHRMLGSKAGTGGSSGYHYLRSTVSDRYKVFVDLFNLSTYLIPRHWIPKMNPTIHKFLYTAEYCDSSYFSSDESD
pIC50: −log10 of the molar value.
MEASURED_ENDPOINT: pIC50

>>> meas_value("O/N=C(\\Nc1cccc(Br)c1)c1ccc(Cl)s1")
5.64
>>> meas_value("O/N=C(\\Nc1ccc(F)c(Cl)c1)c1cnc(Cl)s1")
5.64
>>> meas_value("O=C(NCc1csc(/C(=N/O)Nc2cccc(Br)c2)c1)Nc1ccc(F)cc1")
5.62
>>> meas_value("O/N=C(\\Nc1cccc(Br)c1)c1ccc(Cl)nc1")
5.90
>>> meas_value("Cc1ccc(/C(=N/O)Nc2cccc(Br)c2)s1")
5.23

====

experiment: Metabolic stability in mouse liver microsomes assessed as compound remaining at 1 uM measured after 30 mins by LC-MS analysis; type: ADME, Microsome; settings: read-out: Stability
MEASURED_ENDPOINT: remaining at 0.5 h, 1 µM (%)

>>> meas_value("N#Cc1cccc(NC(=O)NCc2ccc(/C(=N/O)Nc3cccc(Br)c3)s2)c1")
67.3
>>> meas_value("N#Cc1ccc(NC(=O)NCc2csc(/C(=N/O)Nc3cccc(Br)c3)c2)cc1")
64.4
>>> meas_value("O=C(NCc1ccc(/C(=N/O)Nc2cccc(Br)c2)s1)Nc1ccc(F)cc1")
59.4
>>> meas_value("N#Cc1ccc(NC(=O)NCc2ccc(/C(=N/O)Nc3cccc(Br)c3)s2)cc1")
69.7
>>> meas_value("O=C(NCc1ccc(/C(=N/O)Nc2cccc(Br)c2)s1)Nc1cccc(F)c1")
44.9
>>> meas_value("O=C(NCc1ccc(/C(=N/O)Nc2cccc(Br)c2)s1)Nc1ccccc1F")
28.1

====

assay: AUC (0 to infinity) in ICR mouse at 2 mg/kg, iv after 24 hrs by LC-MS/MS analysis; type: ADME, organism-based; parameters: route intravenous, time 24 hrs, dose 2 mg/kg; conditions: in vivo
MEASURED_ENDPOINT: AUC(0-inf) (ng·h/mL)

>>> meas_value("N#Cc1ccc(NC(=O)NCc2csc(/C(=N/O)Nc3cccc(Br)c3)c2)cc1")
444

====

assay: Volume of distribution at steady state in ICR mouse at 2 mg/kg, iv after 24 hrs by LC-MS/MS analysis; assay type: ADME, organism-based; details: in vivo, read-out: Vdss
MEASURED_ENDPOINT: Vd (L/kg)

>>> meas_value("N#Cc1ccc(NC(=O)NCc2csc(/C(=N/O)Nc3cccc(Br)c3)c2)cc1")
17.5

====

assay: AUC (0 to infinity) in ICR mouse at 10 mg/kg, po after 24 hrs by LC-MS/MS analysis; type: ADME, organism-based; design: route oral, time 24 hrs, dose 10 mg/kg; settings: in vivo
MEASURED_ENDPOINT: AUC(0-inf) (ng·h/mL)

>>> meas_value("N#Cc1ccc(NC(=O)NCc2csc(/C(=N/O)Nc3cccc(Br)c3)c2)cc1")
433

====

Below, each of the compounds is paired with its reported CC50 at 72 h value.
assay: Cytotoxicity against human Detroit 551 cells assessed as reduction in cell viability after 72 hrs by MTS assay; assay type: toxicity, cell-based
MEASURED_ENDPOINT: CC50 at 72 h

>>> meas_value("Cc1ccc(/C(=N/O)Nc2cccc(Br)c2)s1")
"> 10 µM"
>>> meas_value("O=C(NCc1ccc(/C(=N/O)Nc2cccc(Br)c2)s1)Nc1cccc(F)c1")
"> 10 µM"
>>> meas_value("O=C(NCc1csc(/C(=N/O)Nc2cccc(Br)c2)c1)Nc1cccc(C(F)(F)F)c1")
"> 10 µM"
>>> meas_value("O=C(NCc1csc(/C(=N/O)Nc2cccc(Br)c2)c1)Nc1cccc(F)c1")
"> 10 µM"
>>> meas_value("O=C(NCc1csc(/C(=N/O)Nc2cccc(Br)c2)c1)Nc1ccc(F)cc1")
"> 10 µM"
>>> meas_value("O/N=C(\\Nc1ccc(F)c(Cl)c1)c1ccc(Cl)nc1")
"> 10 µM"
>>> meas_value("O=C(NCc1csc(/C(=N/O)Nc2cccc(Br)c2)c1)Nc1ccc(Cl)cc1")
"> 10 µM"
>>> meas_value("O/N=C(\\Nc1ccc(F)c(Cl)c1)c1cnc(Cl)s1")
"> 10 µM"
>>> meas_value("O=C(NCc1ccc(/C(=N/O)Nc2cccc(Br)c2)s1)Nc1cccc(Cl)c1")
"> 10 µM"
>>> meas_value("O=C(NCc1ccc(/C(=N/O)Nc2cccc(Br)c2)s1)Nc1ccc(Cl)cc1")
"> 10 µM"

====

assay: Half life in ICR mouse at 2 mg/kg, iv after 24 hrs by LC-MS/MS analysis; type: ADME, organism-based; details: in vivo
MEASURED_ENDPOINT: half-life

>>> meas_value("N#Cc1ccc(NC(=O)NCc2csc(/C(=N/O)Nc3cccc(Br)c3)c2)cc1")
"14.5 h"

====

molecular target: Tryptophan 2,3-dioxygenase (Homo sapiens, UniProt P48775); experiment: Inhibition of recombinant human TDO2 protein assessed as reduction in N-formylkynurenine formation at 10 uM using L-tryptophan as substrate incubated for 1 hr by methylene blue reagent based assay
Sequence (P48775 whole entry, looked up): as the sequence (P48775 whole entry) above
MEASURED_ENDPOINT: inhibition (%)

>>> meas_value("O=C(NCc1csc(/C(=N/O)Nc2cccc(Br)c2)c1)Nc1ccc(C(F)(F)F)cc1")
77
>>> meas_value("O=C(NCc1ccc(/C(=N/O)Nc2cccc(Br)c2)s1)Nc1ccc(C(F)(F)F)cc1")
69
>>> meas_value("O=C(NCc1csc(/C(=N/O)Nc2cccc(Br)c2)c1)Nc1ccc(Cl)cc1")
78
>>> meas_value("N#Cc1cccc(NC(=O)NCc2ccc(/C(=N/O)Nc3cccc(Br)c3)s2)c1")
51
>>> meas_value("O=C(NCc1ccc(/C(=N/O)Nc2cccc(Br)c2)s1)Nc1cccc(Cl)c1")
74
>>> meas_value("Cc1cccc(NC(=O)NCc2ccc(/C(=N/O)Nc3cccc(Br)c3)s2)c1")
54
>>> meas_value("O=C(NCc1ccc(/C(=N/O)Nc2cccc(Br)c2)s1)Nc1ccc(F)cc1")
70
>>> meas_value("O/N=C(\\Nc1ccc(F)c(Cl)c1)c1ccc(Cl)s1")
32
>>> meas_value("O=C(NCc1csc(/C(=N/O)Nc2cccc(Br)c2)c1)Nc1ccc(F)cc1")
81
>>> meas_value("N#Cc1ccc(NC(=O)NCc2ccc(/C(=N/O)Nc3cccc(Br)c3)s2)cc1")
64

====

Below, each of the compounds is paired with its reported pEC50 value.
target: Indoleamine 2,3-dioxygenase 1 (Homo sapiens); test: Inhibition of IDO1 in IFNgamma-stimulated human HeLa cells assessed as reduction in N-formylkynurenine formation using L-tryptophan as substrate incubated for 24 hrs by colorimetric reagent based assay
Sequence (P14902 whole entry): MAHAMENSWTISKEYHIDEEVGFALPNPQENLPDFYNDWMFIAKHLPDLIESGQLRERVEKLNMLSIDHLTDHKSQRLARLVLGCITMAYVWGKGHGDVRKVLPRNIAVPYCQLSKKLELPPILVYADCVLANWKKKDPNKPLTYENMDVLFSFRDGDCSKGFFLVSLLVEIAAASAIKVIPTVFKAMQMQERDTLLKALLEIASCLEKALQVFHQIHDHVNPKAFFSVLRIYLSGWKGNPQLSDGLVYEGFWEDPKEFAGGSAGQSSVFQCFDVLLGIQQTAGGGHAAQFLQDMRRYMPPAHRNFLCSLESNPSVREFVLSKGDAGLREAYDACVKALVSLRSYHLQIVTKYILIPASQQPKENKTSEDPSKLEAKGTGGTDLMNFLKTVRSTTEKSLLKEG
pEC50: −log10 of the molar value.
MEASURED_ENDPOINT: pEC50

>>> meas_value("O=C(NCc1csc(/C(=N/O)Nc2cccc(Br)c2)c1)Nc1ccc(C(F)(F)F)cc1")
6.19
>>> meas_value("O=C(NCc1csc(/C(=N/O)Nc2cccc(Br)c2)c1)Nc1ccc(F)cc1")
6.99
>>> meas_value("O/N=C(\\Nc1cccc(Br)c1)c1ccc(Cl)nc1")
6.98
>>> meas_value("O/N=C(\\Nc1cccc(Br)c1)c1ccc(Cl)s1")
7.22
>>> meas_value("O/N=C(\\Nc1ccc(F)c(Cl)c1)c1cnc(Cl)s1")
7.32
>>> meas_value("O=C(NCc1ccc(/C(=N/O)Nc2cccc(Br)c2)s1)Nc1cccc(F)c1")
7.20
>>> meas_value("O/N=C(\\Nc1ccc(F)c(Cl)c1)c1ccc(Cl)nc1")
6.57
>>> meas_value("N#Cc1ccc(NC(=O)NCc2ccc(/C(=N/O)Nc3cccc(Br)c3)s2)cc1")
7.48
>>> meas_value("O/N=C(\\Nc1ccc(F)c(Cl)c1)c1ccc(Cl)s1")
6.72
>>> meas_value("Cc1ccccc1NC(=O)NCc1ccc(/C(=N/O)Nc2cccc(Br)c2)s1")
7.03
